Reference source for all entries: PubChem BioAssay (NCI)

System: PC-3 prostate
experiment notes: NCI-60 one-dose screen, 48 h
condition notes: 10 µM unless noted
Protocol: Growth inhibition of the PC-3 human tumor cell line is measured as a screen for anti-cancer activity. Cells are grown in 96 well plates and exposed to the test compound for 48 hours. Compounds are tested at a single concentration, which is 10^-5 M for most compounds. The reported endpoint is percent growth (GI% or GIPRCNT), where numbers from 0 - 100% represent growth inhibition, and numbers from -100% - 0 represent cell death. For example, a value of 40 represents 60% growth inhibition. […]
About 83,000 compounds went through this panel and 20% of them were active in at least one assay; those are over-represented in the sample as a whole. The source made the active and inactive calls. How the source made its calls: active means growth percent below 10; inactive means the rest.
One label from this list, please: active, inactive

Prompt: Recorded test call requested for `O=C(Nc1ccc(Cl)cc1)Nc1nc2ccc([N+](=O)[O-])cc2s1`
Response: active

Prompt: Hello, I am checking results. What call was entered for `CCN(CC)CCN1C(=O)c2c(c3c4cc(Br)ccc4[nH]c3c3ccc4ccccc4c23)C1=O` ?
Response: active

Prompt: Assay outcome for `Cc1cc(F)cc(NS(=O)(=O)c2ccc(-c3cnc(C4CC4)o3)cc2)c1` : what was it?
Response: inactive

Prompt: Please state the recorded outcome for this compound: `C=C1C(=O)O[C@@H]2/C=C(/C)C3=CC(=O)[C@@](C)(C[C@H](OC(=O)/C(C)=C\C)[C@@H]12)O3`
Response: inactive

Prompt: Hi team, can someone confirm the assay call for `C/C(Cc1ccc(Cl)cc1)=C(/c1ccccc1)c1ccc(OCCN)cc1` ?
Response: inactive

Prompt: # outcome recorded in this test, key = `CCOC(=O)c1c(Nc2ccccc2)nn2c(-c3ccc(Br)cc3)ccnc12`
Response: inactive

Prompt: Record lookup: outcome of this test for COc1cc(C2=NN(C(C)=O)C(c3ccc(N4CCOCC4)cc3)C2)cc(OC)c1OC (stereo not given) ?
Response: inactive

Prompt: For `O=C(COc1cccc2cccnc12)Nc1ccc(C(=O)/C=C/c2ccc(Cl)cc2)cc1` , what call appears in the results of this test?
Response: inactive

Prompt: Per the records of this test, what outcome belongs to `COc1ccccc1/C=C/C(=O)c1nnn(-c2ccc(C(=O)O)cc2)c1C` ?
Response: inactive

Prompt: Write down the call the test reported for this compound. Item: `COc1ccc2c(c1)c(-c1nn3c(=O)cc(-c4ccccc4)nc3s1)cn2C`
Response: inactive

Prompt: Call for entry `CCN(CC)CCN1C(=O)c2c(c3c4cccnc4[nH]c3c3ccc4ccccc4c23)C1=O` :
Response: inactive

Prompt: Name the outcome recorded for `O=C(COc1ccc(/C=C2\SC(=O)NC2=O)cc1)Nc1ccc(C(=O)/C=C/c2cc3ccccc3nc2Cl)cc1` in the assay.
Response: inactive

Prompt: Dear all, I need the recorded test outcome for `Cc1ccc(-c2csc(N/N=C/c3nc4ccccc4n3C3CC3)n2)cc1` , thank you.
Response: inactive

Prompt: Status in this test for `O=C(Nc1cc(F)cc2cccnc12)c1cnc(N2CCOCC2)cn1` ?
Response: inactive

Prompt: What outcome does the record of this test show for `C#C[C@]1(O)CC[C@H]2[C@@H]3CC=C4c5sc(Nc6cc(OC)ccc6OC)nc5CC[C@]4(C)[C@H]3CC[C@@]21C` ?
Response: inactive

Prompt: Assay result, entry CC(C)=CCC[C@](C)(O)[C@H]1CC[C@]2(C)[C@@H]1CC[C@@H]1[C@@]3(C)CCC(NC(=O)c4ccccc4C(=O)O)C(C)(C)[C@@H]3CC[C@]12C (stereo not given in full) — outcome?
Response: inactive

Prompt: Answer briefly: the call reported for `C(=C(\C1=NCCN1)n1cnc2ccccc21)/c1ccc2ccccc2c1` in this assay.
Response: inactive

Prompt: # lookup: test call for `COc1ccc(-c2cc(-c3cccc4ccccc34)n3c(n2)nc2ccccc23)cc1OC`
Response: inactive

Prompt: Give the logged outcome of this assay for the following compound: COc1ccc(C2CC(c3ccc(Nc4nc(NCCO)nc(Nc5ccc(Cl)cc5)n4)cc3)=Nc3c(N)nc(N)nc3N2)cc1 (stereo not given)
Response: inactive

Prompt: Hi team, can someone confirm the assay call for `CCOC(=O)Nc1cccc(-n2cnc3cc(-c4ccc(O)cc4)ccc32)c1` ?
Response: inactive

====

Test system: MCF7 breast
experiment notes: NCI-60 one-dose screen, 48 h (100 = growth as untreated, 0 = no growth, -100 = all killed)
condition notes: 10 µM unless noted
Compounds without any hit were thinned out: in the full panel of roughly 83,000, 20% have a hit. The source made the active and inactive calls. Rule for the calls: active = growth percent below 10; inactive = the rest.
endpoint label: growth

Given item COc1ccc(N2C(=O)c3cc(OC)c(OC)cc3NC2SCc2ccccc2)cc1 (centres undefined) , the value recorded as its growth is 96.3% (inactive)

Summary for this compound, `CCNCc1c(-c2cccc(OC(F)(F)F)c2)[nH]c2ccc(N3CCCC3)cc2c1=O` : growth is 11.4% (inactive)

compound `CCc1ccc(NC(=O)N[C@@H](Cc2cc(F)cc(F)c2)C(=O)N[C@@H]2C(=O)N3CCC[C@H]3C(=O)N3CCO[C@H](C)[C@H]3C(=O)N[C@@H](CO)C(=O)N3C[C@H](C)C[C@H]3C(=O)O[C@H]2C)c(F)c1` , growth observed: 15.7% (inactive)

Measured growth of `O=C1[C@@H]2Cc3c([nH]c4ccccc34)[C@H](c3c(Cl)cccc3Cl)N2C(=O)CN1C1CCN(Cc2ccccc2)CC1` : 1.17% (active)

`N#Cc1c(-c2ccccc2)cc(-c2c[nH]c3ccccc23)nc1-c1c[nH]c2ccccc12` yielded growth of 95% (inactive)

growth in this record for `CC(C)(C)OC(=O)N1CCN(S(=O)(=O)/N=C2\NC(=O)NC2=C(Cl)Cl)CC1` : 79.7% (inactive)

Short answer for `CN1CCN(c2ccc3c(C(N)=O)c(NC(=O)c4ccc(C(C)(C)C)cc4)sc3c2)CC1` : growth was 39.7% (inactive)

Per the record, `O=C1Nc2cc(OC(F)(F)F)ccc2Oc2ccc(-c3ccnc(N4CCNCC4)c3)cc21` has growth of -55.7% (active)

Data point: `COc1ccc(-c2cc(-c3cccc4ccccc34)n3c(n2)nc2ccccc23)cc1OC` ; growth = 15.4% (inactive)

====

System: COLO 205 colon
experiment notes: NCI-60 one-dose screen, 48 h
condition notes: 10 µM unless noted
About 83,000 compounds went through this panel and 20% of them were active in at least one assay; those are over-represented in the sample as a whole. Calls of active or inactive are those of the source. Rule for the calls: active = growth percent below 10; inactive = the rest.
Respond using exactly one of the listed classes: true (active), false (inactive)

Prompt: What did the test return for CC1CCc2c(sc3nc(SCC(=O)N/N=C/c4cccc(O)c4O)n(-c4ccccc4)c(=O)c23)C1 (stereo unspecified) ?
Response: false

Prompt: Which result was noted for this compound in the test: CCCC(=O)NC(c1cccnc1)c1cc(C(C)=O)c2cccnc2c1O (stereo unspecified)
Response: false

Prompt: Dear colleague, could you share the recorded outcome for `O=C(Nc1cccc(-c2nc(-c3ccc(NC(=O)c4cccs4)cc3Cl)no2)c1)Nc1ccc(NC(=O)C2CC2)c(C(F)(F)F)c1` when you have a moment?
Response: true

Prompt: For `Cc1cc(-c2ccc3nc(N)sc3c2)nc2ccc3[nH]ncc3c12` , which call appears in the assay record?
Response: false

Prompt: # outcome recorded in this test, key = `O=S(=O)(Nc1cc(Cl)c(F)c(Cl)c1)c1ccc(-c2cnc(C3CC3)o2)cc1`
Response: true

Prompt: // return assay outcome for COc1cc(C2CC(c3ccc(Nc4nc(NCCO)nc(Nc5ccc(Cl)cc5)n4)cc3)=Nc3c(N)nc(N)nc3N2)cc(OC)c1OC (stereo unspecified)
Response: false

Prompt: Please share the test call associated with `Cc1ccc(NC(=O)c2ccc(CN3CCN(C)CC3)c(I)c2)cc1Oc1ccc(-c2[nH]nc3ncnc(N)c23)cc1` .
Response: false

Prompt: # fetch the recorded call for `O=c1[nH]c(CNc2ccc(NCc3c(-c4ccccc4)no[n+]3[O-])cc2)nc2c1cnn2-c1ccccc1` here
Response: false

Prompt: What was the test verdict on `CCN1CCN(Cc2ccc(C(=O)Nc3nc4ccc(Oc5ccnc(C(=O)NC)c5)cc4s3)cc2C(F)(F)F)CC1` ?
Response: true

Prompt: How was CCCC(=O)NC(c1cccnc1)c1ccc2c(C)ccnc2c1O (stereo unspecified) classified in this test?
Response: true

Prompt: How did this test come out for CC1OC(O[C@@H]2C(O)C(CO)OC(O[C@H]3COC(O[C@H]4CC[C@]5(C)[C@H]6CC[C@]78OC[C@@]9(CC[C@](C)(C=O)C[C@H]97)[C@H](O)C[C@@]8(C)[C@]6(C)CC[C@H]5C4(C)C)[C@@H](OC4OC(CO)[C@@H](O)[C@@H](O)[C@@H]4O)[C@@H]3O)[C@H]2OC2OC[C@@H](O)[C@@H](O)[C@@H]2O)[C@@H](O)[C@@H](O)[C@H]1O (stereo partly specified) ?
Response: true

Prompt: Write down the call the test reported for this compound. Item: `Oc1ccccc1/C=N/Nc1nc(N/N=C/c2ccccc2O)nc(N2CCOCC2)n1`
Response: false

Prompt: Outcome? `O=C(Nc1ccc(-c2nc(-c3cccc(O)c3)c(-c3ccnc(Br)c3)[nH]2)cc1)c1ccccc1`
Response: false

Prompt: GET /call?item= `O=C(NCCCNc1cc(-c2cn(-c3ccccc3)nc2-c2cccc(O)c2)ccn1)Nc1cccc(C(F)(F)F)c1` returns the recorded outcome of this test.
Response: true

Prompt: How was `CCOP(=O)(OCC)OC[C@]12CCC(C)(C)C[C@H]1C1=CC[C@@H]3[C@@]4(C)C/C(=C\c5cccnc5)[C@H](OP(=O)(OCC)OCC)C(C)(C)[C@@H]4CC[C@@]3(C)[C@]1(C)CC2` classified in this test?
Response: true

Prompt: Kindly provide the recorded test outcome for the following compound: `Cc1cc(=O)n2nc(-c3c[nH]c4ccccc34)sc2n1`
Response: false
